Test: amyloid nucleation score (Sup35N fusion, yeast selection) (log enrichment); library NNK1; higher = more nucleation; inactive = no reads after selection;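 note: zero at mode of non-aggregating sequences after 7 days selection at 30°C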
Task for the reader: assign each of the following substances its reported amyloid nucleation score.
Provide a numeric answer; units are not to be included.

So, `VITRFYGSVGLRIPAIAVVL` ? Its amyloid nucleation score was 0.886

So, `IVVNLGWFQIGIYLPARSDT` ? Its amyloid nucleation score was -1.24

So, `PLRDGA` ? Its amyloid nucleation score was -0.856

So, `VRHSAIRGLHWSGRILRCGV` ? Its amyloid nucleation score was 1.01

So, `LVTFNDSQLSTWASLGLNS` ? Its amyloid nucleation score was -0.003

So, `NFYSGICMICLGT` ? Its amyloid nucleation score was 7.31

So, `LLSQVTCGMQTVRRNGGIIR` ? Its amyloid nucleation score was -0.195

So, `VVPFRLLDIQRNGCFDHGYP` ? Its amyloid nucleation score was 0.142

So, `AEHLICLGYGQRWGNYTGLP` ? Its amyloid nucleation score was 0.164

So, `IRCLSMIWVTKDVLIIWRSQ` ? Its amyloid nucleation score was 0.159

So, `STTILCLLI` ? Its amyloid nucleation score was 5.21

So, `QVHPPMTTGPC` ? Its amyloid nucleation score was 0.291

So, `PDGPANSSKDGDFCDKLR` ? Its amyloid nucleation score was 1.4

So, `VFFNLIKRWEVVREDTM` ? Its amyloid nucleation score was -0.426

So, `FAWLGCFSWTLNFWDKYMRG` ? Its amyloid nucleation score was -0.856

So, `HLGGVWLLIHMRRSFPLDIW` ? Its amyloid nucleation score was 0.207

So, `VNCLLDQQYR` ? Its amyloid nucleation score was 0.746

So, `GSIIMWHYGYYHGCNFYCCH` ? Its amyloid nucleation score was 6.98

So, `MIQRGLVGKDSTHVI` ? Its amyloid nucleation score was -0.175

So, `LSEKYTIPVLFHVLKIITGI` ? Its amyloid nucleation score was 0.495

So, `MLGYIHAEVHVIVSWNLCLK` ? Its amyloid nucleation score was -0.378

So, `NLVAAYRY` ? Its amyloid nucleation score was 0.146

So, `CMMMYVCLLSSGHVGMSLGV` ? Its amyloid nucleation score was 0.18

So, `RNNSVLLLSSYANKRYSPAW` ? Its amyloid nucleation score was -0.439

So, `TGDRCWLFEGYAFKEHCFAD` ? Its amyloid nucleation score was 2.54

So, `DVMRYWVMRVVMPAKFKKAY` ? Its amyloid nucleation score was -0.244

So, `DSCVFARSIVVNSNSFEVIE` ? Its amyloid nucleation score was 0.061

So, `CVFSVRYALDRWDPTKCEVG` ? Its amyloid nucleation score was 0.325

So, `SIMLADYPIHLVSNTPRMVL` ? Its amyloid nucleation score was 0.809

So, `PGYYLEYFLYVNLSWAKTWG` ? Its amyloid nucleation score was 0.018

So, `CWPRWNSVSLGSLSILLCFF` ? Its amyloid nucleation score was 3.77

So, `SADQIYHKGQWHSWTNSTNQ` ? Its amyloid nucleation score was 0.35

---

Task for the reader: assign each of the following sequences its reported amyloid nucleation score.
Experiment: amyloid nucleation score (Sup35N fusion, yeast selection) (log enrichment); library NNK2; higher = more nucleation; inactive = no reads after selection
Provide a numeric answer; units are not to be included.

So, `NCECMRWDDF` ? Its amyloid nucleation score was -0.561

So, `SCFGNVYGGVVLQAFGGVVS` ? Its amyloid nucleation score was 0.082

So, `WVLVYIICFTQDDS` ? Its amyloid nucleation score was -1.4

So, `RFSVDRSSRELICMLGQFDN` ? Its amyloid nucleation score was 0.356

So, `SRCVCMFTEIPATAFPMKVR` ? Its amyloid nucleation score was -0.94

So, `SDYHLFTYTLGINSTLDGRV` ? Its amyloid nucleation score was -1.3

So, `ISERKCCKVLYISAIRVLNF` ? Its amyloid nucleation score was 0.034

So, `VMFYRRYYFKSMANLVDTFR` ? Its amyloid nucleation score was -0.932

So, `SRDVSLRYCTWCPGVN` ? Its amyloid nucleation score was 0.789

---

Test: amyloid nucleation score (Sup35N fusion, yeast selection) (log enrichment); library NNK2; higher = more nucleation; inactive = no reads after selection
Lab note: anything with amyloid nucleation score at or over 0.2 counts as 1; the rest go in 0.

Q: Does amyloid nucleation score meet or surpass 0.2 for `RRDFWPSVSLGCDFRIRFPR` ?
Result: 1

Q: Does amyloid nucleation score meet or surpass 0.2 for `FLTGDFSAHMNLLIWIFEMS` ?
Result: 1

Q: Does amyloid nucleation score meet or surpass 0.2 for `GNWSVDGWQYCNRTHKCSYH` ?
Result: 1

Q: Does amyloid nucleation score meet or surpass 0.2 for `FPLRLLWSGGALCATPPIRV` ?
Result: 1

Q: Does amyloid nucleation score meet or surpass 0.2 for `KQVNPPIA` ?
Result: 0

Q: Does amyloid nucleation score meet or surpass 0.2 for `GSVHANKD` ?
Result: 0

Q: Does amyloid nucleation score meet or surpass 0.2 for `MFKSCQEGIKHWNNPT` ?
Result: 1

Q: Does amyloid nucleation score meet or surpass 0.2 for `WGKLRGIPAYDYSLTGCLYV` ?
Result: 1

Q: Does amyloid nucleation score meet or surpass 0.2 for `LVILEINVPKNIVSQRNYVP` ?
Result: 1

Q: Does amyloid nucleation score meet or surpass 0.2 for `KCSKLRGYTCIMLSIGCLNY` ?
Result: 1

Q: Does amyloid nucleation score meet or surpass 0.2 for `ERSNFWPRVQTPCESVA` ?
Result: 0

Q: Does amyloid nucleation score meet or surpass 0.2 for `SRFRIMSNLGVKWGPCRVYL` ?
Result: 0

Q: Does amyloid nucleation score meet or surpass 0.2 for `LFINNDTNDNYH` ?
Result: 0

Q: Does amyloid nucleation score meet or surpass 0.2 for `VQGSEKYGVVLFEY` ?
Result: 1

Q: Does amyloid nucleation score meet or surpass 0.2 for `SQSHNIYQ` ?
Result: 1

Q: Does amyloid nucleation score meet or surpass 0.2 for `VVRRYICRVLRMFWYWVVRE` ?
Result: 0

Q: Does amyloid nucleation score meet or surpass 0.2 for `SILALTE` ?
Result: 0

Q: Does amyloid nucleation score meet or surpass 0.2 for `EWTLWSSGLRAES` ?
Result: 1

Q: Does amyloid nucleation score meet or surpass 0.2 for `VFPQLCDVSLE` ?
Result: 0

Q: Does amyloid nucleation score meet or surpass 0.2 for `VWDRITLFCSLLIRVHGLCT` ?
Result: 1

Q: Does amyloid nucleation score meet or surpass 0.2 for `MHSLCRM` ?
Result: 0

Q: Does amyloid nucleation score meet or surpass 0.2 for `NSLVLPDLAYLGCKMNLNFS` ?
Result: 1

Q: Does amyloid nucleation score meet or surpass 0.2 for `PYATNSRRNRNVYLRPHCQI` ?
Result: 1

Q: Does amyloid nucleation score meet or surpass 0.2 for `IDDCVKGKTPGNSGNMFCLP` ?
Result: 0

Q: Does amyloid nucleation score meet or surpass 0.2 for `FIVSDSRCVGNVTNGQSVLS` ?
Result: 0

Q: Does amyloid nucleation score meet or surpass 0.2 for `NWCWYHANRLGCFGASCHVV` ?
Result: 1

Q: Does amyloid nucleation score meet or surpass 0.2 for `VDHSMVCWVRCMGC` ?
Result: 0

---

Assay: amyloid nucleation score (Sup35N fusion, yeast selection) (log enrichment); library NNK2; higher = more nucleation; inactive = no reads after selection
Task for the reader: assign each of the following substances its reported amyloid nucleation score.

So, `CEHRSLTFWHNGLLD` ? Its amyloid nucleation score was -0.143

So, `LINPCVRLWLCNCIFTFESA` ? Its amyloid nucleation score was 7.87

So, `TYSTSSLYRMEIHLAFSASV` ? Its amyloid nucleation score was -0.22

So, `TNRNKRWRYLTLFV` ? Its amyloid nucleation score was 0.545

So, `SLLYRD` ? Its amyloid nucleation score was -0.817

So, `FHCVVVYNNRQMCSVTKDSS` ? Its amyloid nucleation score was 7.96

---

Task for the reader: assign each of the following substances its reported amyloid nucleation score.
Assay: amyloid nucleation score (Sup35N fusion, yeast selection) (log enrichment); library NNK2; higher = more nucleation; inactive = no reads after selection
Provide a numeric answer; units are not to be included.

So, `NGDMWKHIKRRQVNNRG` ? Its amyloid nucleation score was 0.881

So, `MFRGVQN` ? Its amyloid nucleation score was 0.899

---

Assay: amyloid nucleation score (Sup35N fusion, yeast selection) (log enrichment); library NNK3; higher = more nucleation; inactive = no reads after selection
measured metric: amyloid nucleation score

> print(dat)
              substance           measured.metric    result
1          RNSFVLWMVSSV  amyloid nucleation score     -0.01
2      TCSRLVDQFNTFGTVY  amyloid nucleation score  inactive
3  VSLFRSLGNLSFSSIWLPSP  amyloid nucleation score  inactive
4  CLNHQASMVSTAPVEFFRFL  amyloid nucleation score  inactive

So, `NCIECRTDTYW` ? Its amyloid nucleation score was inactive

So, `HFSMHITMLEFLTFNSARRV` ? Its amyloid nucleation score was 2.3

So, `VTQSQRKASFMVCSYSTITR` ? Its amyloid nucleation score was inactive

So, `ISYVKFY` ? Its amyloid nucleation score was inactive

So, `FYHVTGLFT` ? Its amyloid nucleation score was inactive

So, `NVMIDDVLARYYRVRRGLVG` ? Its amyloid nucleation score was inactive

So, `LSELSRSARVLMFQLFMSRC` ? Its amyloid nucleation score was 1.87

So, `INQRVYESWLAFV` ? Its amyloid nucleation score was inactive

So, `NVYIVFFNFKTQ` ? Its amyloid nucleation score was 2.34

So, `DRKNCRRSHVWVMRMGNWYC` ? Its amyloid nucleation score was inactive

So, `TWEVYTMCIRNGGVLGLFIF` ? Its amyloid nucleation score was inactive
